measuredTarget: GTPase HRas (Homo sapiens) (UniProt P01112)
protocolSummary: blockade of GTP loading onto mutant Ras – biochemical, activated mutant, multiplex bead flow cytometry, dose response (AID 1341);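 further: GST-tagged constitutively activated Ras mutant immobilized on beads and multiplexed with other GTPases; potency for blocking fluorescent GTP binding to Ras so compounds act as competitors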
runConditions: bead-based flow cytometry, Bodipy-FL-GTP binding
Measured EC50 by item

Would you please look over these solved cases?
Per the record, Cc1ccc(C)c(OCCn2cc(C(=O)O)c3ccccc32)c1 has EC50 of 195 nM

CC(=O)c1c(C)[nH]c(C(=O)N2CCc3ccccc3C2)c1C yielded EC50 of 2460 nM

Documented EC50 of COc1ccc(C(=O)c2c(O)cc(-c3ccc(OC)cc3)oc2=O)cc1 : 5960 nM

EC50 for CC(C)Cc1csc(NC(=O)c2ccccc2Cl)c1C(=O)O is 634 nM

Next:
Field EC50 (entry Cc1cc(NC(=O)CSc2nc(-c3ccccc3)c(C#N)c(=O)[nH]2)no1 ) reads 11000 nM

# EC50 (molecule: N#Cc1c(-c2ccccc2)nc(SCC(=O)Nc2ccccc2)[nH]c1=O ) is 1970 nM

EC50 measured on Cc1cc(C(=O)O)sc1CNCc1ccccc1Cl = 430 nM
